Biological target: T1, COP1^349–675,Lys422Ala WD40 domain (Arabidopsis, UniProt P43254 349-675, Lys422Ala)
T1 sequence: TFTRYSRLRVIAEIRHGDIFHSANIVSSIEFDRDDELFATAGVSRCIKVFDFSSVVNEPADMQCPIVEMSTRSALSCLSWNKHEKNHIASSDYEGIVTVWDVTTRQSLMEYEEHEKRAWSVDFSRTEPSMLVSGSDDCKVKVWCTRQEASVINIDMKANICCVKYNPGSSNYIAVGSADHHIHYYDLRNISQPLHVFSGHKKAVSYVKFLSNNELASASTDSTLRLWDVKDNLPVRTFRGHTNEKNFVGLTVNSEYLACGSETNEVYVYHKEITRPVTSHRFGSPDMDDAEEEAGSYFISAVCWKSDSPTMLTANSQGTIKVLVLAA
Experiment: ITC
pKd: −log10 of the molar value.

{"columns": ["binder", "pKd"],
 "data": [
  ["GFGVVPSF [COL3^287–294 VP peptide]", 5.11],
  ["NDQQVPSAV [CRY2^527–535 VP peptide]", 3.25],
  ["GYGIVPSF [CO^366–373 VP peptide]", 4.68],
  ["EDQMVPSIT [CRY1^544–552 VP peptide]", 4.12]
]}
